# tgt: UniProt P20272
# Sequence (P20272 whole entry): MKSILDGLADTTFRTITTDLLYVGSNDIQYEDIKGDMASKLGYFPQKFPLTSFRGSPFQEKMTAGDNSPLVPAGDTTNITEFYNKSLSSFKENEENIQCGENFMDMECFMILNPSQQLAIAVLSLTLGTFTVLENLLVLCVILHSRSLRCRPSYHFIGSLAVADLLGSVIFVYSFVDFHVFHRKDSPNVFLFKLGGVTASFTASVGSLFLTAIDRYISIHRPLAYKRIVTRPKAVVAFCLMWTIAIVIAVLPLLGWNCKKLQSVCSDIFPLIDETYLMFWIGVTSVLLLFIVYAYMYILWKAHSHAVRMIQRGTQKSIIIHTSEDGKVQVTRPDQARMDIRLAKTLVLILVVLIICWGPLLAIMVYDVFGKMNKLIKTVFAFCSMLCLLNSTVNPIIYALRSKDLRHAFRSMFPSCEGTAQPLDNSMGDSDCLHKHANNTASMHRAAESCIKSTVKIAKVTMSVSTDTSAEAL
# test_details: Pink Flamindo cAMP assay in CB1-transfected HEK293 cells, antagonism of 2-AG; also reverses bath-applied 2-AG in autaptic neurons
pIC50: −log10 of the molar value.
measurement_label: pIC50

INSERT INTO assay_data (molecule, tgt, measurement) VALUES
  ('CCCc1cc(O)c2c(c1)OC(C)(C)[C@@H]1CCC(C)=C[C@@H]21 [THCV, Δ^9-tetrahydrocannabivarin]', 'UniProt P20272', 8.14);
